Source of measurements: patent US20210087281A1

target: native human MET on living cells (human, UniProt P08581 25-1390); assay: cell-based or functional assay
Sequence (P08581 25-1390): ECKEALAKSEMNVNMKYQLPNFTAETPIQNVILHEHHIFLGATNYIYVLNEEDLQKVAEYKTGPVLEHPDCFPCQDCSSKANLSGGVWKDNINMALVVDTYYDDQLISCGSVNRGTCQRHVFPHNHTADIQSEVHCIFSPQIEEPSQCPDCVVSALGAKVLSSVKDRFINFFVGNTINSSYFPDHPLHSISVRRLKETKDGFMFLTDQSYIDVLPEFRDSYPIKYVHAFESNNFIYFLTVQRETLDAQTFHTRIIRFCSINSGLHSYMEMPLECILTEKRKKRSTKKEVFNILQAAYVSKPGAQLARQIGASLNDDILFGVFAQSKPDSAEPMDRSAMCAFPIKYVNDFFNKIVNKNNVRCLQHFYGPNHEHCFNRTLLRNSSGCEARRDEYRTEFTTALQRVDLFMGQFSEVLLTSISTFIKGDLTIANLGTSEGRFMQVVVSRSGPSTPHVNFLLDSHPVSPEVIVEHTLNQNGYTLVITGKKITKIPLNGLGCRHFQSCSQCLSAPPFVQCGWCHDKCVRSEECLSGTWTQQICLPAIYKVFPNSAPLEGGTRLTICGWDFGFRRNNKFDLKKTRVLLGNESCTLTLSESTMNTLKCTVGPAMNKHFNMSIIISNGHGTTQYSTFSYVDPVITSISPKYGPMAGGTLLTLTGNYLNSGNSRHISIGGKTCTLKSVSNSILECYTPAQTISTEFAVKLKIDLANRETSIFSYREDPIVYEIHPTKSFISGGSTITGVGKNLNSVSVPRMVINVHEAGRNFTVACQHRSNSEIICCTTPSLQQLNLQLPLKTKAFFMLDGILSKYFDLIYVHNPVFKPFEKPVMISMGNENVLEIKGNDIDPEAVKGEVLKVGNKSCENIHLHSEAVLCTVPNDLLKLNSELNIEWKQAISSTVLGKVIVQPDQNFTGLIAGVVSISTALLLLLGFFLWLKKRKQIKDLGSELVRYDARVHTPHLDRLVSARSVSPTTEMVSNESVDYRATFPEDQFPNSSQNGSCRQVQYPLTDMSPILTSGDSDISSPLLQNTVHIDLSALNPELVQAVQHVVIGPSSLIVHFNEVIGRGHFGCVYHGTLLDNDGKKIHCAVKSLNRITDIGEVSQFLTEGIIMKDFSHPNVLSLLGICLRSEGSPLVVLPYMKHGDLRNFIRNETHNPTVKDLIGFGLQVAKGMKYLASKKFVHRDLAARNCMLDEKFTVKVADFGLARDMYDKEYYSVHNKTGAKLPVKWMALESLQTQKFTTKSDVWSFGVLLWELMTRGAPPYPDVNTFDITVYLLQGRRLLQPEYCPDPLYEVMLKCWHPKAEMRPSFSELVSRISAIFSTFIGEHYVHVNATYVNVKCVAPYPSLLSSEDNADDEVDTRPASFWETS
REPORTED METRIC: scatter score 0-4, HPAF-II, 0.004 nM (score)
I only need the number, in score, no unit after it.

| BINDER | QUANTITY UNIT | scatter score 0-4, HPAF-II, 0.004 nM |
| --- | --- | --- |
| 71C3 chimeric llama-human IgG1 mAb (antibody, V domains shown, llama VH on human IgG1 CH1-CH2-CH3, llama VL on human lambda CL) VH: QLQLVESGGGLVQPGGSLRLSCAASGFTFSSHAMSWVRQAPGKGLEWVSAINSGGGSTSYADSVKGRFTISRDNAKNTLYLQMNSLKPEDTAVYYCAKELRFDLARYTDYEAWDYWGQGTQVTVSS VL: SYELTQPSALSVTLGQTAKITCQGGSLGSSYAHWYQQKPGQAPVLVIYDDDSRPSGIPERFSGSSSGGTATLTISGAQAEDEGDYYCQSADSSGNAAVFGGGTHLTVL | score | 0 |

Now for another entry.
Form field scatter score 0-4, HPAF-II, 0.004 nM, entry 71D6 chimeric llama-human IgG1 mAb (antibody, V domains shown, llama VH on human IgG1 CH1-CH2-CH3, llama VL on human lambda CL) VH: ELQLVESGGGLVQPGGSLRLSCAASGFTFSSYGMSWVRQAPGKGLEWVSAINSYGGSTSYADSVKGRFTISRDNAKNTLYLQMNSLKPEDTAVYYCAKEVRADLSRYNDYESYDYWGQGTQVTVSS VL: QPVLNQPSALSVTLGQTAKITCQGGSLGARYAHWYQQKPGQAPVLVIYDDDSRPSGIPERFSGSSSGGTATLTISGAQAEDEGDYYCQSADSSGSVFGGGTHLTVL : 1
